Below is a list of entries, each paired with its recorded inhibition at 1 µM value.
target: panel of 255 wild-type kinases (Homo sapiens, UniProt Q9UK32); assay: Kinase panel profiling at 1 µmol/L (MSA or IMAP), percentage inhibition; type: biochemical; conditions: kinase RSK4; 1 µmol/L single concentration; read-out: %-inhibition at 1 µmol/L, RSK4
Sequence (Q9UK32 whole entry): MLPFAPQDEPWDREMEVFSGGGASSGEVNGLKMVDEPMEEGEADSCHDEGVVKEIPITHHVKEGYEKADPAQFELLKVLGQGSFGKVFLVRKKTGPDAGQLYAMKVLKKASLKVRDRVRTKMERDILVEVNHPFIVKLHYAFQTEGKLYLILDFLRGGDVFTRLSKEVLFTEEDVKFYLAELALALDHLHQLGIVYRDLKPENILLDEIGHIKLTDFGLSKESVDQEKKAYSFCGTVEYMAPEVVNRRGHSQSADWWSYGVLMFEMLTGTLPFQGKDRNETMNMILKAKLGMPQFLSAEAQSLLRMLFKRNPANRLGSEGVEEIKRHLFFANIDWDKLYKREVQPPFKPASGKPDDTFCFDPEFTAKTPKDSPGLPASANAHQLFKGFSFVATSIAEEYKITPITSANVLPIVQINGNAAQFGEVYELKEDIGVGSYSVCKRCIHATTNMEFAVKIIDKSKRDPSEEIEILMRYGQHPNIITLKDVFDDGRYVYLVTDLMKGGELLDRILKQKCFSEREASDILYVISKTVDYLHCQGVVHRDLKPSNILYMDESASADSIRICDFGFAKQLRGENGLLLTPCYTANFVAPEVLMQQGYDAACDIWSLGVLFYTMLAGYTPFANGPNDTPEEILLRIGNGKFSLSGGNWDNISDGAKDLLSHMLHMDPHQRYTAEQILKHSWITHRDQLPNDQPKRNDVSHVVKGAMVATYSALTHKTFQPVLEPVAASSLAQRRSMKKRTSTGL
Return type: number; implicit unit %.

The examples below pair each entry with its known result.
1) Cc1cc(Nc2ncnc3ccc(NC4=NC(C)(C)CO4)cc23)ccc1Oc1ccn2ncnc2c1: 0.229
2) Cn1cnc2c(F)c(Nc3ccc(Br)cc3F)c(C(=O)NOCCO)cc21: -0.233

Exercise: Report measured inhibition at 1 µM; entry is CO[C@]1(C(=O)N[C@@H](C)c2ccc(-n3cc(F)cn3)nc2)CC[C@H](c2nc(C)cc(Nc3cc(C)[nH]n3)n2)CC1
Solution: 37
